Data credit: patent US20200317768A1

koff values by entry
- system: T1, Human latent myostatin (human, UniProt O14793 25-266; O14793 267-375)
- T1 construct: Biotinylated in the ELISAs; also called human myostatin latent form
- T1 sequence 1: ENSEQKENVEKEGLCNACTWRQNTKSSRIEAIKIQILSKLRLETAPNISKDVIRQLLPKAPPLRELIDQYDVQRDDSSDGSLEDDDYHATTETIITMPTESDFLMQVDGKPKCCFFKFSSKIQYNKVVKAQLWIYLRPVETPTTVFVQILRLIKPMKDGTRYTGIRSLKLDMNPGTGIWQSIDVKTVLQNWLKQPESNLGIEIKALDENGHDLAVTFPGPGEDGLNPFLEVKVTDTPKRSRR
- T1 sequence 2: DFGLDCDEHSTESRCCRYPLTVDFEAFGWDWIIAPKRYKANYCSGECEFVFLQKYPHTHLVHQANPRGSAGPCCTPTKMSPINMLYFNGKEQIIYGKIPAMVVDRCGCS
- procedure.details: SPR (BIACORE), additional dissociation phase at pH5.8 after dissociation at pH7.4, Scrubber 2.0 fit
# value in s⁻¹; strip the unit string

binder	output.unit	koff
Ab006 (M103205H000 / M103202L008) (antibody, human IgG1, kappa, V domains shown, Histidine-substituted variant of MS1032LO00-SG1) VH: QVTLKESGPVLVKPTETLTLTCTVSGIDLSSYDISWVRQAPGKGLEWVGIISYAGSTYYASWAKGRLTISKDTSKNQVVLTMTNMDPVDTATYYCARGVPAYSTGGDLWGQGTLVTVSS VL: DIVMTQSPATLSLSPGERATLSCQSSQSVYHNNWLSWFQQKPGQPPKLLIYWASTLASGVPSRFSGSGSGTDFTLTISSLQPEDAATYYCAGGYGGGLYAFGQGTKVEIKR	s⁻¹	8.58e-05
Ab007 (M103205H028 / M103202L008) (antibody, human IgG1, kappa, V domains shown, Histidine-substituted variant of MS1032LO00-SG1) VH: QVTLKESGPVLVKPTETLTLTCTVSGIDLSSYDISWVRQAPGKGLEWVGIISYAGSTYYASWAKGRLTISKDTSKNQVVLTMTNMDPVDTATYYCARGVPAYSHGGDLWGQGTLVTVSS VL: DIVMTQSPATLSLSPGERATLSCQSSQSVYHNNWLSWFQQKPGQPPKLLIYWASTLASGVPSRFSGSGSGTDFTLTISSLQPEDAATYYCAGGYGGGLYAFGQGTKVEIKR	s⁻¹	0.000415

Prompt: I am curious: what koff value has been reported for Ab004 (M103205H026 / M103202L000) (antibody, human IgG1, kappa, V domains shown, Histidine-substituted variant of MS1032LO00-SG1) VH: QVTLKESGPVLVKPTETLTLTCTVSGIDLSSYDISWVRQAPGKGLEWVGIISYAGSTYYASWAKGRLTISKDTSKNQVVLTMTNMDPVDTATYYCARGVPAHSTGGDLWGQGTLVTVSS VL: DIVMTQSPATLSLSPGERATLSCQSSQSVYDNNWLSWFQQKPGQPPKLLIYWASTLASGVPSRFSGSGSGTDFTLTISSLQPEDAATYYCAGGYGGGLYAFGQGTKVEIKR ?
Completion: 0.000186
